system-name: RBBP4 Glu231Ala (UniProt Q09028 1-425, Glu231Ala)
Sequence (Q09028 whole entry E231A): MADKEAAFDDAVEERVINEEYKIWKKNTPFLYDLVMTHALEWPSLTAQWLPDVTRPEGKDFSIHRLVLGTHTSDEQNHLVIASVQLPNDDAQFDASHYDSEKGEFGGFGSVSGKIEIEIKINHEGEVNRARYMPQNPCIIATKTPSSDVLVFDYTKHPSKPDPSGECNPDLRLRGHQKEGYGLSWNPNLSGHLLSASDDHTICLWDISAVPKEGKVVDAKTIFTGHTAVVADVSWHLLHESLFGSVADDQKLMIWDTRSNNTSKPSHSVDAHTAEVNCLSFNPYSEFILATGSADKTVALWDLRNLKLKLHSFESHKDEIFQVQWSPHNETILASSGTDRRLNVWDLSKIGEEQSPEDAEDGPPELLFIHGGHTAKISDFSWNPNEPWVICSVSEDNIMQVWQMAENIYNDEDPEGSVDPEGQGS
measurement-notes: ITC
result-type: pKd
Value format note: pKd is -log10 of concentration (mol/L); just state the number.

Lookup: For the binder KRRKLKNKRRRS [AEBP2_(379–390) peptide (RRK-rich motif, residues Lys379–Ser390)] , give its reported pKd.
Found: 4.41
